biological target: sLFA-1/ICAM-1 (Homo sapiens, UniProt P05107+P20701, DEL701-769); test: sLFA-1/ICAM-1 ELISA; conditions: sLFA-1 coated plates, 5dICAM-Fc binding, read-out: LFA/ICAM (IC50)
Sequence (P20701 26-1090 limits assumed, stated change not applied): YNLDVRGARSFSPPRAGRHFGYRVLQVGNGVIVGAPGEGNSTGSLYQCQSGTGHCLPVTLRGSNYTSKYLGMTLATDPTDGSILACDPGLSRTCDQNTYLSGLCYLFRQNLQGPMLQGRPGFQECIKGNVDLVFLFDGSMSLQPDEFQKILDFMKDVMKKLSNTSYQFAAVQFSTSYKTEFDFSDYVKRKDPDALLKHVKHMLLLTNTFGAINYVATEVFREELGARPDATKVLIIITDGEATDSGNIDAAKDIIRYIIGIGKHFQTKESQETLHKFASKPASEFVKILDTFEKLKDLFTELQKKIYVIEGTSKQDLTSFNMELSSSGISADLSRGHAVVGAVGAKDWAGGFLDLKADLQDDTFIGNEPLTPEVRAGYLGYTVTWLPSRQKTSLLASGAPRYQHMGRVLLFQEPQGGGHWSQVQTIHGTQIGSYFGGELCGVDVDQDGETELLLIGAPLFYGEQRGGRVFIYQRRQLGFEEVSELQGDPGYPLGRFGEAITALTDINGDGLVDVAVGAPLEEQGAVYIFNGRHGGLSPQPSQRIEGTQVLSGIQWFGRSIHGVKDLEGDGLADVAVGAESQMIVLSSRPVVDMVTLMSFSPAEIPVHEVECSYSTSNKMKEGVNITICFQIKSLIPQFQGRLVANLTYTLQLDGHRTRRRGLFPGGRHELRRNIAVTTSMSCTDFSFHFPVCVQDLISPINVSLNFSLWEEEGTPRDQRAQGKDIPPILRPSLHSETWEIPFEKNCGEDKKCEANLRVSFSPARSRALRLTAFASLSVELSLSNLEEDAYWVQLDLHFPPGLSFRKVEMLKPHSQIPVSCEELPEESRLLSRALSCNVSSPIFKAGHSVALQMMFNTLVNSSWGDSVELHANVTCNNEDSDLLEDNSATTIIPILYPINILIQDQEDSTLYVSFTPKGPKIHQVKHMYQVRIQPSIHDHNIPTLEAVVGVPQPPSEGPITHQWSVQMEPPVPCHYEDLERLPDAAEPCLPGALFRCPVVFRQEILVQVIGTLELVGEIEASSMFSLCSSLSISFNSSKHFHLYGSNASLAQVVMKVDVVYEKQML
Sequence (P05107 23-700 limits assumed, stated change not applied): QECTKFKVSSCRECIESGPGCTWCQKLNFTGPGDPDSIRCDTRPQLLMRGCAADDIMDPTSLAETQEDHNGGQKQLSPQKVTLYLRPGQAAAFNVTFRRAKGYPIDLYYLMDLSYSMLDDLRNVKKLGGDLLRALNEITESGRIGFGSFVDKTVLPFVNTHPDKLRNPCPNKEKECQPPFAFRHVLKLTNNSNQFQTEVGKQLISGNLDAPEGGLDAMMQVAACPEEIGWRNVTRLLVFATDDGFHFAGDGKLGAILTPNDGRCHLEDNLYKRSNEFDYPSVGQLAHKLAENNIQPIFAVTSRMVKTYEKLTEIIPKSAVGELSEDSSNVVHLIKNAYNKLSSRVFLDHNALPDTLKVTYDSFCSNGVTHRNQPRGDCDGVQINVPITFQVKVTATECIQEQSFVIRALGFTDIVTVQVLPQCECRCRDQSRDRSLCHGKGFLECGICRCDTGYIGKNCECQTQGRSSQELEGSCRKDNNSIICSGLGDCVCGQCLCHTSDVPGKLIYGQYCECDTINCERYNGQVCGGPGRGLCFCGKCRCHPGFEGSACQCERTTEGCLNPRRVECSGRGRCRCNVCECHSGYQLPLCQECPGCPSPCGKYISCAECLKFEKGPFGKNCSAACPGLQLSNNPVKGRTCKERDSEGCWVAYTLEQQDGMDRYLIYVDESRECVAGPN
Property Name: IC50 (µM)
Give bare numbers, in µM.

- Molecule: "CC(C)c1cc(C(=O)NCc2cccc(O)c2)sc1C(=O)N[C@@H](CNC(=O)c1cccs1)C(=O)O [Example 59]"
  Value Units: "µM"
  IC50: 0.029

Batch request: IC50 for each of the following molecules.
1. N#Cc1cc(C(=O)NCc2cccc(O)c2)sc1C(=O)N[C@@H](CNC(=O)c1cccs1)C(=O)O [Example 65]
2. Cc1cc(C(=O)NCc2cccc3[nH]ncc23)sc1C(=O)N[C@@H](CNC(=O)c1cccs1)C(=O)O [Example 36]
3. CC(C)c1cc(C(=O)NCc2cccc3[nH]ncc23)sc1C(=O)N[C@@H](CNC(=O)c1cccs1)C(=O)O [Example 60]

(A)
1: 0.003; 2: 0.024; 3: 0.049
